- protocol notes: NCI Yeast Anticancer Drug Screen. Data for the cln2 rad14 strain (AID 165)
- condition parameters: S. cerevisiae cln2 rad14 strain, at 50.0 µM
Compounds without any hit were thinned out: in the full panel of roughly 79,000, 15% have a hit. The source made the active and inactive calls. Rule as the data show it: active = growth inhibition above about 70%; inactive = the rest.
A correct response names exactly one class from active, inactive

Please review the entries below; each comes with its answer.
COc1ccc(CSC(=S)Nc2ccc(Cl)c(C(F)(F)F)c2)cc1; active
O=S(=O)(N/N=C/c1ccc(Cl)cc1Cl)c1ccccc1; inactive
COc1ccc(C2COc3c(ccc(O)c3O)C2)cc1OC (configuration not stated); inactive
OCCCNc1nc2c(Cl)cc(Cl)cc2c2ccccc12; inactive
CS(=O)(=O)n1c(C(O)c2ccccc2)nc2ccccc21 (configuration not stated); inactive

Hi, do you know how CC/C(=C(/CC)c1ccc(O)cc1)c1ccc([O-])cc1.CC/C(=C(/CC)c1ccc(O)cc1)c1ccc([O-])cc1.O=C([CH-]C(=O)c1ccccc1)c1ccccc1.O=C([CH-]C(=O)c1ccccc1)c1ccccc1.[Ti+4] came out in this test?
active

Hi, do you know how CC1=Nc2ccccc2C1C(Cc1ccccc1N)c1c(C)[nH]c2ccccc12 (configuration not stated) came out in this test?
active

Hi, do you know how CN(C)C=C1C(Cl)=C(C=O)CC(C=O)=C1Cl came out in this test?
inactive

Hi, do you know how CCCCCN=C(C)C(C)=NCCCCC came out in this test?
active

Hi, do you know how COC(=O)c1ccc2c(c1)C(O)NC(=O)O2 (configuration not stated) came out in this test?
active

Hi, do you know how Cc1[nH]c2c(C)cccc2c1C1Cc2ccccc2N1 (configuration not stated) came out in this test?
active

Hi, do you know how CNC(=O)NN(C)C=O came out in this test?
inactive

Hi, do you know how Nc1ccc2c(c1)CN1C(=O)c3ccccc3C1=N2 came out in this test?
inactive

Hi, do you know how CC(=O)NNc1nc(C)c(C(=O)NNC(=O)C(=O)Nc2ccc(Cl)c([N+](=O)[O-])c2)s1 came out in this test?
inactive

Hi, do you know how Cc1c(-c2ccccc2)ccnc1/C=N/NC(=S)Nc1ccccc1 came out in this test?
active

Hi, do you know how O=c1[nH]c2ccccc2c2oc3ccccc3c12 came out in this test?
inactive

Hi, do you know how OC(c1ccccc1)(c1ccccc1)c1ccc[cH-]1.OC(c1ccccc1)(c1ccccc1)c1ccc[cH-]1.[Fe+2] came out in this test?
inactive

Hi, do you know how O=C1COC(=O)/C1=C\C=C\c1ccccc1 came out in this test?
active

Hi, do you know how CC1=C(c2ccccc2)C(=O)OC1=O came out in this test?
inactive
